biological target: Apelin receptor (Homo sapiens) (UniProt P35414); assay: potency against CXCR6 with APJ panel – cell-based, beta-arrestin, DiscoveRx, uHTS hits, dose response (AID 624129); details: CXCR6 beta-arrestin (DiscoveRx) antagonist cell assay, APJ, dose range 1, mean IC50 across replicates
pIC50: −log10 of the molar value.
Could you label it True if measured pIC50 is 5 or higher, and False otherwise?

molecule | label
COc1ccc(C2CC(c3c(O)n(CCc4ccccc4)c(=O)[nH]c3=O)=NN2)cc1OC (configuration not stated) | False
O=Cc1s/c(=N\S(=O)(=O)c2ccccc2)n(CCCCl)c1Cl | True
O=C(Nc1nnc(-c2cccs2)o1)c1cccc(C(F)(F)F)c1 | False
O=c1cc(CSc2ccc(Cl)cc2)nc(-c2ccccn2)[nH]1 | True
O=S(=O)(/C=C/C=C/S(=O)(=O)c1ccccc1)c1ccccc1 | False
Cc1cccc(C(=O)Nc2ccc(C(=O)/C=C/c3ccncc3)cc2)c1 | False
CN(C)c1nc(=NCc2cccs2)ss1 | True
O=C(c1nnsc1S(=O)c1ccc(Cl)cc1)N1CCOCC1 (configuration not stated) | False
Cc1ccc(/C=N/NC(=S)N2CCOCC2)cc1 | True
Fc1ccc(Sc2nc(-c3ccccc3)nnc2C(F)(F)F)cc1 | False
Oc1cccc2ccc(/C=C/c3c(F)cccc3Cl)nc12 | False
CCOc1cc(Br)c(Br)c(C=Nc2ccc(NC(C)=O)cc2)c1O | False
CC(=O)OCCCNc1cc(Sc2ccc(Cl)cc2)c2nonc2c1[N+](=O)[O-] | True
O=[N+]([O-])c1ccc(Sc2cccc3cccnc23)c([N+](=O)[O-])c1 | True
Cc1[nH][nH]c(=O)c1C(c1c(C)[nH][nH]c1=O)c1cn(Cc2ccc(Cl)c(Cl)c2)c2ccccc12 | False
CCS(=O)(=O)c1ncc(Cl)c(C(=O)Nc2ccc(S(=O)(=O)N(C)c3ccccc3)cc2)n1 | True
COc1ccc(C(=O)/C=C/C(=O)N(CC(=O)NC2CCCCC2)Cc2cccs2)c(O)c1 | False
